Sourced from paper PMC3355519

Biological target: HIV-1 PRI47V (Human immunodeficiency virus type 1 group M subtype B, UniProt P04585, C555A/C583A/I535V/L521I/L551I/Q495K)
Assay: HIV-1 protease inhibition, fluorogenic p2/NC substrate, I47V mutant
Conditions: Ki, PRI47V; pH 5.6, 37 °C
MEASURED PARAMETER: Ki (nM)

[
  {
    "SMILES STR": "COc1ccc(S(=O)(=O)N(C[C@H]2CCC(=O)N2)C[C@@H](O)[C@H](Cc2ccccc2)NC(=O)O[C@@H]2C[C@@H]3CCO[C@@H]3C2)cc1",
    "OBSERVED RESULT": 0.4
  }
]
